# tested.target: T1, TNFR1 (Homo sapiens, UniProt P19438)
# T1 chain: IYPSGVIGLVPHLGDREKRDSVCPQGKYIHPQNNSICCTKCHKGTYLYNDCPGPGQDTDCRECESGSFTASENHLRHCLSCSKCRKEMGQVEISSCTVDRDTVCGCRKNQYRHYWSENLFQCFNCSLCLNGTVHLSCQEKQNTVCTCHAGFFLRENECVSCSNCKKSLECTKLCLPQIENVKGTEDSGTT
# test.name: yeast display SC50
readout.kind: apparent Kd (screen) (pM)
State the answer as a number, implicitly in pM.

binder: L41T (designed binder) MTLQELLREEALRRAEAEAFRYALELLAEKFPEQKEYLLDTAEEIESQIRSLSGVDVEDVRKFLDKEWAWVKELLAEHPAELAEVEAARAARLAELRAEVEAKVAA
apparent Kd (screen) [pM]: 539

Query: Quick check: apparent Kd (screen) of K62R (designed binder) MTLQELLREEALRRAEAEAFRYALELLAEKFPEQKEYLLDLAEEIESQIRSLSGVDVEDVRRFLDKEWAWVKELLAEHPAELAEVEAARAARLAELRAEVEAKVAA ?
Reply: 539

Query: Quick check: apparent Kd (screen) of V71F (designed binder) MTLQELLREEALRRAEAEAFRYALELLAEKFPEQKEYLLDLAEEIESQIRSLSGVDVEDVRKFLDKEWAWFKELLAEHPAELAEVEAARAARLAELRAEVEAKVAA ?
Reply: 1690

Query: Quick check: apparent Kd (screen) of L75W (designed binder) MTLQELLREEALRRAEAEAFRYALELLAEKFPEQKEYLLDLAEEIESQIRSLSGVDVEDVRKFLDKEWAWVKELWAEHPAELAEVEAARAARLAELRAEVEAKVAA ?
Reply: 1160
